Target: Inhibitor of nuclear factor kappa-B kinase subunit beta (Homo sapiens, UniProt O14920)
Sequence (O14920 whole entry): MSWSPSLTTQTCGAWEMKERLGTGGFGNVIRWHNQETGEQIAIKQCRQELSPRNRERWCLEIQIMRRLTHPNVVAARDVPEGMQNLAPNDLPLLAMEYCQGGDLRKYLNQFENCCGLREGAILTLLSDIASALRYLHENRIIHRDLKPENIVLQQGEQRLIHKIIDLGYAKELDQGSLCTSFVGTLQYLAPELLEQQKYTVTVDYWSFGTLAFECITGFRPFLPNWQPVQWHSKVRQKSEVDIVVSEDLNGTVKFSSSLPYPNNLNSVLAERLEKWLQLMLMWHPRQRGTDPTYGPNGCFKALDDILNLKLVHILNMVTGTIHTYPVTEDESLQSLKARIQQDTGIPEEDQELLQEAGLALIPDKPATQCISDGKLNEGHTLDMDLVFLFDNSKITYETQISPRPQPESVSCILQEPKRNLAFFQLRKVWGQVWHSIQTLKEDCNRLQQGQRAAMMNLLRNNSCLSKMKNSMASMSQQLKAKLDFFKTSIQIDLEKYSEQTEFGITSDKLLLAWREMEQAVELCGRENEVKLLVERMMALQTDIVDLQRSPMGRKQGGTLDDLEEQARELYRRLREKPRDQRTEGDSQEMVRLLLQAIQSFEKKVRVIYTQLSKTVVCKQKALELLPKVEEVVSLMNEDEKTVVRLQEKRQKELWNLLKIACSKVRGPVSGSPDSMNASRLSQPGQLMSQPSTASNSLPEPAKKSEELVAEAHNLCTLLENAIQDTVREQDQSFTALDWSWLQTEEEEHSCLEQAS
Assay: Inhibition of human IKK-beta by substrate phosphorylation assay
Exercise: state measured pIC50 for each of the compounds provided.
// field semantics: pIC50 = negative decimal log of concentration (mol/L)

Query: Data request, read-out pIC50, for "NC(=O)Nc1sc2c(c1C(N)=O)CCc1nn(Cc3cccnc3)cc1-2"
Result: 5.32

Query: Data request, read-out pIC50, for "CCCCn1cc2c(n1)CCc1c-2sc(NC(N)=O)c1C(N)=O"
Result: 5.57

Query: Data request, read-out pIC50, for "CC(C)n1cc2c(n1)CCc1c-2sc(NC(N)=O)c1C(N)=O"
Result: 5.64

Query: Data request, read-out pIC50, for NC(=O)Nc1sc2c(c1C(N)=O)CCc1nn(C3CCN(Cc4ccccc4)C3)cc1-2 (racemic)
Result: 5.52

Query: Data request, read-out pIC50, for "CCCn1cc2c(n1)CCc1c-2sc(NC(N)=O)c1C(N)=O"
Result: 5.54

Query: Data request, read-out pIC50, for "NC(=O)Nc1sc2c(c1C(N)=O)CCc1c-2cnn1Cc1ccc(F)cc1"
Result: 6.70

Query: Data request, read-out pIC50, for COc1ccc(CN2CCCC(n3cc4c(n3)CCc3c-4sc(NC(N)=O)c3C(N)=O)C2)c(F)c1 (configuration not stated)
Result: 5.72

Query: Data request, read-out pIC50, for "CN(CCn1cc2c(n1)CCc1c-2sc(NC(N)=O)c1C(N)=O)Cc1ccccc1"
Result: 5.34

Query: Data request, read-out pIC50, for NC(=O)Nc1sc2c(c1C(N)=O)CCc1nn(C3CCCN(Cc4ccc(O)cc4F)C3)cc1-2 (configuration not stated)
Result: 6.05

Query: Data request, read-out pIC50, for "COCCn1cc2c(n1)CCc1c-2sc(NC(N)=O)c1C(N)=O"
Result: 4.96

Query: Data request, read-out pIC50, for "CCCn1ncc2c1CCc1c-2sc(NC(N)=O)c1C(N)=O"
Result: 5.66

Query: Data request, read-out pIC50, for "NC(=O)Nc1sc2c(c1C(N)=O)CCc1nn(Cc3ccncc3)cc1-2"
Result: 5.64

Query: Data request, read-out pIC50, for NC(=O)Nc1sc2c(c1C(N)=O)CCc1nn(C3CCCN(Cc4ccc(Cl)cc4)C3)cc1-2 (configuration not stated)
Result: 5.60

Query: Data request, read-out pIC50, for NC(=O)Nc1sc2c(c1C(N)=O)CCc1nn(C3CCCN(Cc4ccccc4)C3)cc1-2 (racemic)
Result: 5.66

Query: Data request, read-out pIC50, for "NC(=O)Nc1sc2c(c1C(N)=O)CCc1nn(Cc3ccc(F)cc3)cc1-2"
Result: 6.05
